Assay: Log distribution coefficient between 1-octanol and aqueous buffer at pH of 7.4.
Format: physicochemical
Details: 1-octanol/aqueous buffer, pH 7.4
parameter_measured: logD

P = CCNc1cc(-c2n[nH]c(N)n2)ccn1
Q = Nc1cc(-c2n[nH]c(N)n2)ccn1
Enquiry: Please state the entry with greater logD among P and Q . Response format: the label of the selected entry.
Return: P
(P: 1.13, Q: 0.11)

###

Biological target: UniProtKB P31389
Sequence (P31389 whole entry): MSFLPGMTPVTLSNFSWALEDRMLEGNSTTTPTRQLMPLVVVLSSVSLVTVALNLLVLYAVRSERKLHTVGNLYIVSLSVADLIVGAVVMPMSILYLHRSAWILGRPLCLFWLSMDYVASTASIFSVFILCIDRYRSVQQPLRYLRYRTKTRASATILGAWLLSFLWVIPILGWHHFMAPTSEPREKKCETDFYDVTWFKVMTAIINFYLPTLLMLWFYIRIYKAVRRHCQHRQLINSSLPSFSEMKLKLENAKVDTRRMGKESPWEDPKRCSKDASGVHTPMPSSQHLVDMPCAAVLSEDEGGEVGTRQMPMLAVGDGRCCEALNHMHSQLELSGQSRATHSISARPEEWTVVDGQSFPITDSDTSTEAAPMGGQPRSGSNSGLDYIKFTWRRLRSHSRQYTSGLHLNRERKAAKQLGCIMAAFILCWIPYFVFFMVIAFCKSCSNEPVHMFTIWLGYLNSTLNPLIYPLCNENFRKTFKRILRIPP
Assay: Relative antagonistic activity against Histamine H1 receptor
parameter_measured: Relative activity

I = c1ccc(CN(CCc2c[nH]cn2)Cc2ccccc2)cc1
II = CN(C)CCN(Cc1ccccc1)c1ccccc1
Enquiry: Please state the entry with greater Relative activity among I and II . Response format: the label of the selected entry.
Return: II
(II: 1, I: 0.01)

###

Biological target: Histamine H2 receptor (Cavia porcellus) (UniProt P47747)
Sequence (P47747 whole entry): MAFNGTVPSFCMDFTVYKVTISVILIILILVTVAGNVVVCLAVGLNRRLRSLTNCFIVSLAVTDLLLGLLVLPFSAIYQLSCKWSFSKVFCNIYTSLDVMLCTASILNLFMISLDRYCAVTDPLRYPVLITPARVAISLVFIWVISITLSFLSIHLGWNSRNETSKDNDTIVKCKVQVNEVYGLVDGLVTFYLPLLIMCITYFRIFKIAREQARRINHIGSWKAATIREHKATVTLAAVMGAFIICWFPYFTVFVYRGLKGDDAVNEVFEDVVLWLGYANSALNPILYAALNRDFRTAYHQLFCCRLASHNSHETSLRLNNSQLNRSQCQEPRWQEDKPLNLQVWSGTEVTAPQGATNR
Experiment: Antagonistic activity against histamine H2 receptor from guinea pig atrium; activity KB (Dissociation Constant) is negative
Assay type: functional, tissue-based
Conditions: Cardiac atrium
The source made the active and inactive calls. No cut-off for these calls is given here.
parameter_measured: KB

Sample records with KB:
> print(dat)
          smiles.notation  parameter.measured  endpoint.result
1  Nc1n[nH]c(Cc2ccccn2)n1                  KB         inactive
2  Nc1n[nH]c(-c2ccccn2)n1                  KB         inactive
3  Nc1n[nH]c(Cc2ccncc2)n1                  KB         inactive
4  Nc1n[nH]c(-c2cccnc2)n1                  KB         inactive

Kindly consider the entry below.
Enquiry: Request - read-out KB | tested on Histamine H2 receptor (Cavia porcellus) (UniProt P47747) | compound Nc1n[nH]c(Cc2cccnc2)n1
Return: inactive

###

Assay: Log distribution coefficient between 1-octanol and aqueous buffer at pH of 9.2.
Type: physicochemical
Conditions: 1-octanol/aqueous buffer, pH 9.2
parameter_measured: logD

> print(dat)
                smiles.notation  endpoint.result
1  CN/C(=N\CCSCc1nc[nH]c1C)NC#N              0.4

a = Nc1cc(-c2n[nH]c(N)n2)ccn1
b = CCNc1cc(-c2n[nH]c(N)n2)ccn1
Enquiry: Please state the entry with greater logD among a and b . Response format: the label of the selected entry.
Return: b
(b: 0.97, a: -0.06)

###

Assay: Log distribution coefficient between 1-octanol and aqueous buffer at specified pH of 9.2.
Conditions: 1-octanol/aqueous buffer, pH 9.2
parameter_measured: logD
The answer should be written as a number, with no unit following it.

Enquiry: What logD value was documented for this compound, CN/C(=N\CCSCc1nc[nH]c1C)NC#N ?
Return: 0.54
